Test system: B cell receptor-mediated activation of B cells in human blood (CD69 expression)
Assay: Inhibition of B cell activation in whole blood measured by CD69 expression
Assay type: cell-based
Details: anti-IgM stimulation, 20 h, 50% decrease of CD69-positive cells that are also CD20-positive
outcome-measure: IC50 (nM)
Report the value in nM with no unit label.

Here's what some known entries look like.
{"compound": "CCn1ccc(Nc2cc(-c3cccc(-n4ncc5cc(C(C)(C)C)cc(F)c5c4=O)c3CO)cn(C)c2=O)nc1=O", "units": "nM", "IC50": 219}
{"compound": "CCNC(C)(C)c1ccc(Nc2cc(-c3cccc(-n4ncc5cc(C(C)(C)C)cc(F)c5c4=O)c3CO)cn(C)c2=O)nc1", "units": "nM", "IC50": 6}
{"compound": "CC(O)Cn1cc(Nc2nc(-c3cccc(-n4ccc5cc(C6CC6)cc(F)c5c4=O)c3CO)cn(C)c2=O)cn1 (stereo not shown)", "units": "nM", "IC50": 57}
{"compound": "CC(=O)NC(C)(C)c1ccc(Nc2cc(-c3cccc(-n4ncc5cc(C(C)(C)C)cc(F)c5c4=O)c3CO)cn(C)c2=O)nc1", "units": "nM", "IC50": 47}
{"compound": "CCNC(=O)Nc1cc(-c2cccc(N3CCc4cc(C(C)(C)C#N)cc(F)c4C3=O)c2CO)cn(C)c1=O", "units": "nM", "IC50": 1080}

Inquiry: Look at this compound and give its reported IC50. "CN1CCN(c2ccc(Nc3cc(-c4cccc(-n5ccc6cc(C(C)(C)O)cc(F)c6c5=O)c4CO)cn(C)c3=O)nc2)CC1"
Reply text: 3

Inquiry: Look at this compound and give its reported IC50. "Cn1cc(-c2cccc(-n3ncc4cc(C(C)(C)C)cc(F)c4c3=O)c2CO)cc(Nc2ccc3c(n2)CCNC3)c1=O"
Reply text: 33
